# MEASUREMENT TARGET: GDP-bound KRAS wild-type protein (Homo sapiens)
# METHOD DESCRIPTION: Binding to KRAS by surface plasmon resonance (SPR), Single Cycle Kinetics
# CONDITION: SPR Single Cycle Kinetics, GDP-bound KRAS wild-type protein, 1:1 binding model; read-out: KRAS KD
*1 amine or outer side, *2 acyl side, *3 side chain or, on linkers, in order; H or OH if unused. Where a SMILES comes first, the peptide text is derived from it. Bridges are numbered along the chain shown (N, C = ends). [ ]: non-standard residue; d: D form. The star is where a group is joined. hPhe(3,5-F2-4-CF3) = N[C@@H](CCc1cc(F)c(C(F)(F)F)c(F)c1)C(=O)O; X39 = CC(C)CCN([C@@H](Cc1ccc(C(F)(F)F)cc1)C(=O)[*:2])[*:1]; hPhe(3-Cl-4-CF3) = N[C@@H](CCc1ccc(C(F)(F)F)c(Cl)c1)C(=O)O; NPrPhe(4-CF3) = CCCN[C@@H](Cc1ccc(C(F)(F)F)cc1)C(=O)O; NMeAbu(4,4,4-F3) = CN[C@@H](CC(F)(F)F)C(=O)O; X13 = O=C([C@@H](N[*:1])C1CC(F)(F)C1)[*:2]; NMeGly(cPent) = CN[C@H](C(=O)O)C1CCCC1; NMeD = CN[C@@H](CC(=O)O)C(=O)O; NMeL = CN[C@@H](CC(C)C)C(=O)O; αMeS = C[C@](N)(CO)C(=O)O; Morpholide = C1CN(*)CCO1; Ac5c = NC1(C(=O)O)CCCC1; Sar = CNCC(=O)O
EXPERIMENTAL READOUT: pKd
Please keep in mind that pKd is minus log10 of the molar concentration; only the number is needed.

Use these answered entries as a reference point.
CC[C@H](C)[C@@H]1NC(=O)[C@H](CC(C)C)N(C)C(=O)C[C@@H](C(=O)N2CCOCC2)N(C)C(=O)[C@H](C2CCCC2)N(C)C(=O)C2(CCCC2)NC(=O)[C@@H]2CCCN2C(=O)[C@H](CCc2ccc(C(F)(F)F)c(Cl)c2)NC(=O)CN(C)C(=O)[C@H](Cc2ccc(C(F)(F)F)cc2)N(CCC(C)C)C(=O)CN(C)C(=O)CN(C)C1=O [PP0126] ([NMeL]I[Sar][Sar][X39][Sar][hPhe(3-Cl-4-CF3)]P[Ac5c][NMeGly(cPent)][NMeD]-Morpholide; lactam N-11)
9.37
CCCN1C(=O)CN(C)C(=O)CN(C)C(=O)[C@H](C2CC(F)(F)C2)NC(=O)[C@H](CC(C)C)N(C)C(=O)C[C@@H](C(=O)N(C)C)N(C)C(=O)[C@H](C2CCCC2)N(C)C(=O)C2(CCCC2)NC(=O)[C@@H]2CCCN2C(=O)[C@H](CCc2cc(F)c(C(F)(F)F)c(F)c2)NC(=O)CN(C)C(=O)[C@@H]1Cc1ccc(C(F)(F)F)cc1 [PP0748] ([NMeL][X13][Sar][Sar][NPrPhe(4-CF3)][Sar][hPhe(3,5-F2-4-CF3)]P[Ac5c][NMeGly(cPent)][NMeD]-NMe2; lactam N-11)
10.10
CCCN1C(=O)CN(C)C(=O)CN(C)C(=O)[C@H]([C@@H](C)CC)NC(=O)[C@H](CC(C)C)N(C)C(=O)C[C@@H](C(=O)N2CCOCC2)N(C)C(=O)[C@H](C2CCCC2)N(C)C(=O)[C@](C)(COC)NC(=O)[C@@H]2CCCN2C(=O)[C@H](CCc2cc(F)c(C(F)(F)F)c(F)c2)NC(=O)CN(C)C(=O)[C@@H]1Cc1ccc(C(F)(F)F)cc1 [PP0762] ([NMeL]I[Sar][Sar][NPrPhe(4-CF3)][Sar][hPhe(3,5-F2-4-CF3)]P[αMeS](Me)[NMeGly(cPent)][NMeD]-Morpholide; lactam N-11)
9.14
CCCN1C(=O)[C@H](C2CCCC2)N(C)C(=O)C2(CCC2)NC(=O)[C@@H]2C[C@@H](OCC)CN2C(=O)[C@H](CCc2cc(F)c(C(F)(F)F)c(F)c2)NC(=O)CN(C)C(=O)[C@H](Cc2ccc(C(F)(F)F)cc2)N2CCCC[C@@H](C2=O)N(C)C(=O)CN(C)C(=O)[C@H]([C@@H](C)CC)NC(=O)[C@H](CC(C)C)N(C)C(=O)C[C@H]1C(=O)N1CCOCC1
9.12

Let's switch to this compound now.
// compound CCCN1C(=O)CN(C)C(=O)CN(C)C(=O)[C@H]([C@@H](C)CC)NC(=O)[C@H](CC(C)C)N(C)C(=O)C[C@@H](C(=O)N(C)C)N(C)C(=O)[C@H](CC(F)(F)F)N(C)C(=O)C2(CCCC2)NC(=O)[C@@H]2CCCN2C(=O)[C@H](CCc2cc(F)c(C(F)(F)F)c(F)c2)NC(=O)CN(C)C(=O)[C@@H]1Cc1ccc(C(F)(F)F)cc1 [PP0746] ([NMeL]I[Sar][Sar][NPrPhe(4-CF3)][Sar][hPhe(3,5-F2-4-CF3)]P[Ac5c][NMeAbu(4,4,4-F3)][NMeD]-NMe2; lactam N-11) , assay GDP-bound KRAS wild-type protein (Homo sapiens), pKd value: 9.37

###

# MEASUREMENT TARGET: GDP-bound KRAS wild-type protein (Homo sapiens, UniProt P01116)
# Sequence (P01116 whole entry): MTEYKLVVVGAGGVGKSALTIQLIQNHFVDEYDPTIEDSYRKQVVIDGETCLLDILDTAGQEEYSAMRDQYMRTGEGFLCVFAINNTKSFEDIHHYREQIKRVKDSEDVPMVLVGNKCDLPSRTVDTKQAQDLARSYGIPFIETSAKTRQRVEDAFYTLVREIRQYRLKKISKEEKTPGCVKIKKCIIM
# METHOD DESCRIPTION: Binding to KRAS by surface plasmon resonance (SPR), Single Cycle Kinetics
# CONDITION: SPR Single Cycle Kinetics, GDP-bound KRAS wild-type protein, 1:1 binding model; read-out: KRAS KD
Where a SMILES comes first, the peptide text is derived from it. Bridges are numbered along the chain shown (N, C = ends). [ ]: non-standard residue; d: D form. The star is where a group is joined. hPhe(3-Cl-4-CF3) = N[C@@H](CCc1ccc(C(F)(F)F)c(Cl)c1)C(=O)O; NPrPhe(4-CF3) = CCCN[C@@H](Cc1ccc(C(F)(F)F)cc1)C(=O)O; NMeGly(cPent) = CN[C@H](C(=O)O)C1CCCC1; cisHyp = O=C(O)[C@@H]1C[C@H](O)CN1; Hyp = O=C(O)[C@@H]1C[C@@H](O)CN1; NMeD = CN[C@@H](CC(=O)O)C(=O)O; NMeL = CN[C@@H](CC(C)C)C(=O)O; Morpholide = C1CN(*)CCO1; Ac5c = NC1(C(=O)O)CCCC1; Ac4c = NC1(C(=O)O)CCC1; NEtG = CCNCC(=O)O; Sar = CNCC(=O)O
EXPERIMENTAL READOUT: Kd (nM)
Your answer is read as nM, so omit the unit and give the number.

CCCN1C(=O)CN(C)C(=O)CN(CC)C(=O)[C@H]([C@@H](C)CC)NC(=O)[C@H](CC(C)C)N(C)C(=O)C[C@@H](C(=O)N(C)C)NC(=O)[C@H](C2CCCC2)N(C)C(=O)C2(CCC2)NC(=O)[C@@H]2C[C@@H](OCC)CN2C(=O)[C@H](CCc2ccc(C(F)(F)F)c(Cl)c2)NC(=O)CN(C)C(=O)[C@@H]1Cc1ccc(C(F)(F)F)cc1 [PP0372] ([NMeL]I[NEtG][Sar][NPrPhe(4-CF3)][Sar][hPhe(3-Cl-4-CF3)][Hyp](Et)[Ac4c][NMeGly(cPent)]D-NMe2; lactam N-11)
0.79

Let's switch to this compound now.
Record CCCN1C(=O)CN(C)C(=O)CN(C)C(=O)[C@H]([C@@H](C)CC)NC(=O)[C@H](CC(C)C)N(C)C(=O)C[C@@H](C(=O)N2CCOCC2)N(C)C(=O)[C@H](C2CCCC2)N(C)C(=O)C2(CCCC2)NC(=O)[C@@H]2C[C@H](OCC)CN2C(=O)[C@H](CCc2ccc(C(F)(F)F)c(Cl)c2)NC(=O)CN(C)C(=O)[C@@H]1Cc1ccc(C(F)(F)F)cc1 [PP0243] ([NMeL]I[Sar][Sar][NPrPhe(4-CF3)][Sar][hPhe(3-Cl-4-CF3)][cisHyp](Et)[Ac5c][NMeGly(cPent)][NMeD]-Morpholide; lactam N-11) , field Kd: 0.31
